This collection of values is drawn from patent US20200407435A1.

Biological target: T1, cynomolgus (cyno) ANGPT2 (cynomolgus, UniProt A0A2K5VNX6 275-496)
T1 construct: domain: FLD domain; also called cyno ANGPT2 FLD domain
T1 sequence: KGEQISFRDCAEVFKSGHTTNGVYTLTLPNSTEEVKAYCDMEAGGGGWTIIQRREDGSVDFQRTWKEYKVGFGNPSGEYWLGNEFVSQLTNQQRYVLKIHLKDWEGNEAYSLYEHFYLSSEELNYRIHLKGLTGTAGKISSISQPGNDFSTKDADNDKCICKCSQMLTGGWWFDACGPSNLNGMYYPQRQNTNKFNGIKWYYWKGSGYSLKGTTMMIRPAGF
Experiment: SPR (ProteOn XPR36), antibody captured on Protein A/G, ANGPT2 as analyte, 1:1 Langmuir fit
Each item that follows carries a reported pKd.
Scale note: pKd = -log10(concentration in M).

*Q* Any idea what its pKd is? The binder is chimeric lead CL-209881 (antibody, V domains shown, Chimeric antibody with murine variable domains; the constant regions of the tested antibody are not) VH: QVQLKQSGAELVKPGSSVKISCRASGYIFIDYFINWVKQRPGQGLEWIGKIGPGSGSSSSNEKFKGKATLTADKSSSTAYMQLSSLTSEDSAVYFCAREAFDYDGDYYGMAYWGQGTSVTVSS VL: DIVMTQSPSSLSVSAGEKVTMSCKSSQSLLNSGNQKNFLAWYQQKPGQPPKLLIYGASTRESGVPDRFTGSGSGTDFTLTITSVQAEDLAVYYCQNDHSYPITFGSGTKLEIK
*A* 9.62

*Q* Any idea what its pKd is? The binder is ANGPT2-opt-1 (humanized) (antibody, human IgG1, kappa, V domains shown, also called Ang2-opt-1) VH: QVQLVQSGAEVKKPGSSVKVSCKASGYIFIDYFINWVRQAPGQGLEWMGKIGPGSGSSSSNEKFKGRVTITADKSTSTAYMELSSLRSEDTAVYYCAREAFDYEGDYYGMAYWGQGTLVTVSS VL: EIVMTQSPATLSVSPGERATLSCKSSQSLLASGNQKNFLAWYQQKPGQAPRLLIYGASTRESGIPARFSGSGSGTEFTLTISSLQSEDFAVYYCQNDHSYPITFGQGTKLEIKR
*A* 9.44

*Q* Any idea what its pKd is? The binder is ANGPT2-opt-31 (humanized) (antibody, human IgG1, kappa, V domains shown, also called Ang2-opt-31) VH: QVQLVQSGAEVKKPGSSVKVSCKASGYIFIDYFINWVRQAPGQGLEWMGKIGPGSGSSSSNEKFKGRVTITADKSTSTAYMELSSLRSEDTAVYYCAREAFDYDGDYYGMAYWGQGTLVTVSS VL: EIVMTQSPATLSVSPGERATLSCKSSQSLLSSGNQKSFLAWYQQKPGQAPRLLIYGASTRESGIPARFSGSGSGTEFTLTISSLQSEDFAVYYCQNDHSYPITFGQGTKLEIKR
*A* 9.84
